# credit: patent US11332492B2

Target: recombinant human 5′-nucleotidase (CD73) (Homo sapiens (Human), UniProt P21589)
Sequence (P21589 27-574): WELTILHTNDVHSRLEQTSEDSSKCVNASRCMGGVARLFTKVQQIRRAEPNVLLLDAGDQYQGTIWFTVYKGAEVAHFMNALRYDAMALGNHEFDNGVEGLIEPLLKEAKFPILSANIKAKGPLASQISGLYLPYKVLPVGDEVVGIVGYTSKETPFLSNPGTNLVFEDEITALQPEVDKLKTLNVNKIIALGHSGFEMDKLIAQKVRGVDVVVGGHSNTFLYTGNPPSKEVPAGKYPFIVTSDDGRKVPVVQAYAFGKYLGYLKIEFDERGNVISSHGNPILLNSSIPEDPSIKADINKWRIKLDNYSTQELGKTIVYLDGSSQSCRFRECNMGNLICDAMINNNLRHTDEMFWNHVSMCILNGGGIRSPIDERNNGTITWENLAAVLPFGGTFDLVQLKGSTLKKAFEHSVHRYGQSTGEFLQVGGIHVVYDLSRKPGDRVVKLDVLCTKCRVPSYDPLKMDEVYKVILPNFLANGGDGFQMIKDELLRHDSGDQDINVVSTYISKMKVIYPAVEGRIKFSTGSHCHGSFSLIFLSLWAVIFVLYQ
Test: Inhibition of CD73 enzyme activity in vitro (Malachite Green phosphate detection, CMP substrate)
Conditions: 0.34 nM recombinant human CD73, 2 h pre-incubation at 37° C., 45 μM CMP; read-out: IC50 values of biochemical inhibition of CD73 enzymatic activity
Label condition met when IC50 is strictly below 0.2 nM; at or above that, label condition not met.

>>> answer_label("O=P(O)(COC[C@H]1O[C@@H](n2ncc3c(N4CC5(CCc6ccccc65)C4)nc(Cl)nc32)[C@H](O)[C@@H]1O)Oc1ccccc1")
"condition not met"
>>> answer_label("CC(C)OC(=O)OCOP(=O)(COC[C@H]1O[C@@H](n2ncc3c(N4CC5(CCc6ccccc65)C4)nc(Cl)nc32)[C@H](O)[C@@H]1O)OCOC(=O)OC(C)C")
"condition not met"
>>> answer_label("O=P(COC[C@H]1O[C@@H](n2ncc3c(N4CC5(CCc6ccccc65)C4)nc(Cl)nc32)[C@H](O)[C@@H]1O)(Oc1ccccc1)Oc1ccccc1")
"condition not met"
>>> answer_label("O=P(O)(O)COC[C@H]1O[C@@H](n2ncc3c(N4CC5(C4)OCc4cc(Cl)ccc45)nc(Cl)nc32)[C@H](O)[C@@H]1O")
"condition met"
>>> answer_label("O=P(O)(O)COC[C@H]1O[C@@H](n2ncc3c(N4CC5(CCCCC5)C4)nc(Cl)nc32)[C@H](O)[C@@H]1O")
"condition met"
>>> answer_label("CC(C)OC(=O)OCOP(=O)(O)COC[C@H]1O[C@@H](n2ncc3c(N4CC5(CCc6ccccc65)C4)nc(Cl)nc32)[C@H](O)[C@@H]1O")
"condition not met"
>>> answer_label("COc1ccc2c(c1)CCC21CN(c2nc(Cl)nc3c2cnn3[C@@H]2O[C@H](COCP(=O)(O)O)[C@@H](O)[C@H]2O)C1")
"condition met"
>>> answer_label("O=P(O)(O)Cc1cccc(OC[C@H]2O[C@@H](n3ncc4c(N5CC6(CCCCC6)C5)nc(Cl)nc43)[C@H](O)[C@@H]2O)c1")
"condition not met"
>>> answer_label("CC(OC(=O)C(C)(C)C)OP(=O)(O)COC[C@H]1O[C@@H](n2ncc3c(N4CC5(CCc6ccccc65)C4)nc(Cl)nc32)[C@H](O)[C@@H]1O (some centres unmarked)")
"condition not met"
>>> answer_label("O=P(O)(O)COC[C@H]1O[C@@H](n2ncc3c(N4CC5(CCc6ccc(F)cc65)C4)nc(Cl)nc32)[C@H](O)[C@@H]1O")
"condition not met"
>>> answer_label("O=P(O)(O)COC[C@H]1O[C@@H](n2ncc3c(N4CC5(CCc6ccccc65)C4)nc(Cl)nc32)[C@H](O)[C@@H]1O")
"condition met"
